target.system: T1, mouse P2X7 (mouse, UniProt Q9Z1M0 1-595)
T1 construct: on transfected CHO or Hek293 cells, or endogenous on Yac-1 cells; also called mP2X7; mouse purinoceptor P2X7
T1 sequence: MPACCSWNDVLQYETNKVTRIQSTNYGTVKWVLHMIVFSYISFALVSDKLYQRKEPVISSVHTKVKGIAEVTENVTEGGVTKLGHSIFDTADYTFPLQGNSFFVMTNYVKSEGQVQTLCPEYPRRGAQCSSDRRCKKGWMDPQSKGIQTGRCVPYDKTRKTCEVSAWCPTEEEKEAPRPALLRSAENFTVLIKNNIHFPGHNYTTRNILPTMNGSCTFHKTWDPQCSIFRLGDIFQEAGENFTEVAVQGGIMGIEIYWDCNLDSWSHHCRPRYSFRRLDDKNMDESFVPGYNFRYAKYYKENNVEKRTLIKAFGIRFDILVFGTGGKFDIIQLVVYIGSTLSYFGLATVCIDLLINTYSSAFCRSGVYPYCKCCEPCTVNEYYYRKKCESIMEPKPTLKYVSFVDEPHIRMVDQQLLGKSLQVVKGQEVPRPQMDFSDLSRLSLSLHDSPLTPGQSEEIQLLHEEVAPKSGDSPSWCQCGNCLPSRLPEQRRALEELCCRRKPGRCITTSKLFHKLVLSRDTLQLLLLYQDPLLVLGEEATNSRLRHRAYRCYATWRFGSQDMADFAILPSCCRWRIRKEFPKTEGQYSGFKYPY
assay.summary: phage ELISA on fixed mP2X7-CHO vs untransfected CHO cells;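 also: phage culture supernatant diluted 10-fold, applied for 1 h to paraformaldehyde-fixed, BSA-blocked cells in 96-well plates, with bound phage read via HRP-linked anti-M13 antibody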
# cutoff 20 fold applies to Fold Cho P2X7/wt (phage ELISA); >= gives condition met, < gives condition not met

Illustrative cases are given below, each with its answer.
Has P2X7PMP13G4 (VHH, family 21; on phage or c-myc/His6-tagged in assays) VHH: EVQLVESGGGLVQAGGSLRLSCAASDRTFGSSTMGWFRQPPGKNREFVATIAWSATTTHYADAVKGRFTVSRDNALNTVYLQMNSLKPEDTAVYYCAATLTWLGIHEYEYNTWGQGTQVTVSS a recorded Fold Cho P2X7/wt (phage ELISA) greater than or equal to 20 fold? condition met

Assess whether reported Fold Cho P2X7/wt (phage ELISA) for P2X7PMP8C7 (VHH, family 7; on phage or c-myc/His6-tagged in assays) VHH: EMQLVESGGGLVQAGGSLRLSCAASGRTFSSLAMGWLRQAPGKEREFVSGISRGGTSTYYADSVKGRFTISRDNAKNTMYLQMNSLKPEDTAVYYCAGSPVLSIVLDTRGLEYWGQGTQVTVSS sits at 20 fold or higher. condition met

Dear colleague, could you confirm whether P2X7PMP16D9 (VHH, family 15; on phage or c-myc/His6-tagged in assays) VHH: EVQLVESGGGLVQAGGSLRLSCAASPGTFSSFNMGWFRQTPGKEREFVAATSWSDISTYYADSVKGRFTISRDNAKNTVTLEMNSLKPEDTAVYYCAAGYYRGGYLGYRLTLEGSYDVWGQGTQVTVSS has Fold Cho P2X7/wt (phage ELISA) at or above 20 fold? condition not met

Reported Fold Cho P2X7/wt (phage ELISA) reaches at least 20 fold for P2X7PMP13G5 (VHH, family 18; on phage or c-myc/His6-tagged in assays) VHH: EVQLVESGGGLVQAGGSLRLSCAASDRTFGSSAMGWFRQAPGKDRDFVAAISWSGSSTHYADSVKGRFTISRDNAKNTMYLQMNSLKPADTAVYTCAASRRAYLPAKVGEYDFWGQGTQVTVSS ? condition met

Check the entry P2X7PMP18C1 (VHH, family 25; on phage or c-myc/His6-tagged in assays) VHH: EVQLVESGGDLVQPGGSLRLSCVASGFALEEHAIGWFRQAPGKEREGVSLSSYLGAAYYATSVKGRFTISRDNAKNTVTLQMNSLKPEDTAVYYCARGHFTYDDGRITIRSVDYWGKGTLVTVSS : does Fold Cho P2X7/wt (phage ELISA) equal or exceed 20 fold? condition not met

Assess whether reported Fold Cho P2X7/wt (phage ELISA) for P2X7PMP7E2 (VHH, family 3; on phage or c-myc/His6-tagged in assays) VHH: EVQLVESGGGLVQAGGSLRLSCAAPERTYSMGWFRQAPGKEREFVAGSGWDGIPTRYADSVKGRFTISRDNAKNTVSLQMSGLKPEDTAIYYCATGTSVYHYQYWGQGTQVTVSS sits at 20 fold or higher. condition met

New cases:
Entry P2X7PMP20C9 (VHH, family 2; on phage or c-myc/His6-tagged in assays) VHH: EVQLVESGGGLVQTGGSLRLSCAASGFTLDDYAIAWFRQAPGKEREGVSILSSIGKTFYADSAKDRFSITADGAKTTVFLQMNSLKPEDTAIYYCVAGHFVYNDGAISLNTARGSGFWGQGTQVTVSS : is its Fold Cho P2X7/wt (phage ELISA) no less than 20 fold? condition not met

Is it the case that P2X7PMP6B7 (VHH, family 16; on phage or c-myc/His6-tagged in assays) VHH: EVQLVESGGGLVQAGGSLRLSCVVSGRTFSAMGWFRQAPGKEREFVATVGWNPMNSYYGDSVKGRFTIFRDNAKNTVYLQMNSLKPEDTAVYYCAGSGSLLDVTSEAVYTDWGQGTQVTVSS has Fold Cho P2X7/wt (phage ELISA) reaching or exceeding 20 fold? condition met
